The values you see were collected from the supplement of paper PMC10567573.

B1: SMTNL2 (parent)
chain: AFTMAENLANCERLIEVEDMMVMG

variants of: B1; test: protein stability index of a GFP-peptide fusion (GPS, HEK-293T) (PSI 1-6); higher = more stable; settings: c terminus: a fixed tail appended;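 note: lentivirally expressed fusions sorted by FACS into six bins by GFP to DsRed ratio, PSI derived from sequencing read proportions per bin multiplied by bin number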
valueType: protein stability index
# respond with the number and nothing more

Worked set:
> print(dat)
                 constructsequence  measuredvalue
1  AFTMAENLANCELLIEVEDMMVMG [R13L]           3.24
2   AFTMAENTANCERLIEVEDMMVMG [L8T]           3.92
3  AFTMAENLANCERWIEVEDMMVMG [L14W]           1.59
4  AFTMAENLANCERLIEVEEMMVMG [D19E]           1.48
5   AFTMAGNLANCERLIEVEDMMVMG [E6G]           2.15

// below: protein stability index requested for another variant
Problem: Let me know recorded protein stability index for FFTMAENLANCERLIEVEDMMVMG [A1F] , thanks.
Result: 1.86
